Data credit: ChEMBL document CHEMBL1201862

GI50 reference
Test system: UACC-62
ASSAY_EXPLANATION: NCI tumour cell line growth inhibition, 48 h
The source made the active and inactive calls. Cut-off read from the data, not from the text of the source: active = GI50 up to about 1.1 µM and inactive = higher.
READOUT_LABEL: GI50

[[record]]
compound = "COc1ccc(S(=O)(=O)n2c3c(c4ccccc42)[C@@H]2[C@@H](CCCN2C(=O)C[S+]([O-])c2ccc(C)cc2)[C@H](Cl)C3)cc1 (some centres undefined)"
result_value = "> 100 µM (inactive)"

[[record]]
compound = "NC(=O)c1nnsc1N/N=C/c1ccc([N+](=O)[O-])cc1"
result_value = "> 100 µM (inactive)"

[[record]]
compound = "NC(=O)c1ccc(NCC2=CC(=O)C=CC2=O)cc1"
result_value = "20.4 µM (inactive)"

[[record]]
compound = "COc1ccccc1N1CCN(CCCCNC(=O)c2ccc([N+](=O)[O-])o2)CC1"
result_value = "5.93 µM (inactive)"

[[record]]
compound = "CSC(=S)N/N=C/c1nccc2ccccc12"
result_value = "1.29 µM (inactive)"

[[record]]
compound = "Nc1ccc(C(=O)N/C(=C\\c2ccc3c(c2)OCO3)c2nc3ccc4c(c3[nH]2)C(=O)c2ccccc2C4=O)cc1"
result_value = "33.7 µM (inactive)"

[[record]]
compound = "CC(C)(C)OC(=O)NC(CCCCNC(=O)OCc1ccccc1)C(=O)NCCNc1ccc(NCCNC(=O)C(CCCCNC(=O)OCc2ccccc2)NC(=O)OC(C)(C)C)c2c1C(=O)c1ccccc1C2=O (centres undefined)"
result_value = "23 µM (inactive)"

[[record]]
compound = "CCCCCCCCCCCCCCCCCCN(C)CC(COC)OP(=O)([O-])OCC[N+](C)(C)C (centres undefined)"
result_value = "3.05 µM (inactive)"

[[record]]
compound = "COc1ccc2cc(C(=O)NCCc3ccccc3)ccc2c1OC"
result_value = "> 100 µM (inactive)"


---

Tested on: UACC-62
ASSAY_EXPLANATION: NCI tumour cell line growth inhibition, 48 h
Activity calls are given as the source filed them. Cut-off read from the data, not from the text of the source: active = GI50 up to about 1.1 µM and inactive = higher.
Possible outcomes: 1.0 (active), 0.0 (inactive)

[[record]]
compound = "O=C(N/C(=C\\c1ccc(F)cc1)c1nc2ccccc2[nH]1)c1ccccc1"
target = "UACC-62"
class_name = 0.0

[[record]]
compound = "Cc1cc(N(CCC#N)S(=O)(=O)c2ccccc2)ccc1C=O"
target = "UACC-62"
class_name = 0.0

[[record]]
compound = "COc1cc(C(C)c2cc3c(cc2OCCNC(=O)COc2cc4c(cc2C(C)c2cc(OC)c(OC)c(OC)c2)OCO4)OCO3)cc(OC)c1OC (centres undefined)"
target = "UACC-62"
class_name = 0.0

[[record]]
compound = "C=C1C(=O)OC2/C=C(\\C)C(=O)CC3OC(C)(C)OC3(C)CC(OC(=O)/C(C)=C/C)C12 (centres undefined)"
target = "UACC-62"
class_name = 0.0

[[record]]
compound = "O=C(c1cccs1)N(C(=O)N1CCCCC1)c1ccccc1"
target = "UACC-62"
class_name = 0.0

[[record]]
compound = "O=C(Cn1c2c(c3ccccc31)CCCC2)N1CCCCC1"
target = "UACC-62"
class_name = 0.0

[[record]]
compound = "O=C(Nn1c(-c2ccccc2)nc2ccccc2c1=O)c1cccc([N+](=O)[O-])c1"
target = "UACC-62"
class_name = 0.0

[[record]]
compound = "Cc1ccc2nc(Cl)c(/C=N/N3C(=O)/C(=C/c4ccc(N(C)C)cc4)N=C3c3ccccc3)cc2c1"
target = "UACC-62"
class_name = 0.0

[[record]]
compound = "CCc1cccc(C(C)C)c1NC1=C([n+]2ccc(C)cc2)C(=O)c2ccccc2C1=O.[O-][Cl+3]([O-])([O-])[O-]"
target = "UACC-62"
class_name = 1.0

